- tested_system: rhesus c-Met on 4MBr-5 cells (rhesus)
- measurement_description: cell-based or functional assay
measured_metric: EC50 [nM] Inhibition of HGF driven proliferation 4MBr-5 (nM)
Give a bare numeral; the unit nM is implied.

Any idea what its EC50 [nM] Inhibition of HGF driven proliferation 4MBr-5 is? The binder is 04536 in IgG format (antibody, V domains shown) VH: QVQLVQSGAEVKKPGASVKVSCKASGYTFTGYYMNWVRQAPGQGLEWMGIINPWTGNTNYAQKFQGRVTMTRDTSISTAYMELSSLRSEDTAVYYCARDPGFFYYTPSDLWGQGTLVTVSS VL: DIELTQPPSVSVAPGQTARISCSGDSIGNKYVHWYQQKPGQAPVLVIYADSDRPSGIPERFSGSNSGNTATLTISGTQAEDEADYYCQAYDSSMLRVFGGGTKLTVLG
4
